Where these numbers come from: patent US4820723A

Items are presented alongside their recorded pKB.
- TARGET_OR_TEST_SYSTEM: LTD4 in guinea pig ileum and trachea (Cavia porcellus, UniProt Q2NNR5)
- Construct: from tissue; host or cells: isolated ileum and trachea of guinea pigs (male Hartley stated for the ileum test)
- Sequence (Q2NNR5 whole entry): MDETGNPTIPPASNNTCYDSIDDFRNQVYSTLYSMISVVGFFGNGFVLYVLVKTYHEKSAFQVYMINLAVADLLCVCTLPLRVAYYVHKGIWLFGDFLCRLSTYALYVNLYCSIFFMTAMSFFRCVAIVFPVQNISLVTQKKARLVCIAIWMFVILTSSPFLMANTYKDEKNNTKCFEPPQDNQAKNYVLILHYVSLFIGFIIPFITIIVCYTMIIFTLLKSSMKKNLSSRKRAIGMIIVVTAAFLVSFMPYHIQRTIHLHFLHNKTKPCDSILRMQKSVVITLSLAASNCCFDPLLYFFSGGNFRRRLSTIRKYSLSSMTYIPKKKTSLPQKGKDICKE
- PROCEDURE_TEXT: cumulative concentration-response curves to LTD4 in guinea pig ileum and trachea (KB by method of Furchgott)
- CONDITIONS: negative log of the dissociation KB, 30 minute incubation, LTD4 agonist
Enter the number alone.

Illustrative cases are given below, each with its answer.
- CHEMICAL_SMILES: "CCCc1c(Oc2ccc(-c3nnn(Cc4ccc(C(=O)O)cc4)n3)cc2)ccc(C(C)=O)c1O"
  pKB: 7.00
- CHEMICAL_SMILES: "CCCc1c(OCCCCc2nnn(Cc3ccc(C(=O)O)c(O)c3)n2)ccc(C(C)=O)c1O"
  pKB: 6.89
- CHEMICAL_SMILES: "CCCc1c(OCCCCc2nnn(Cc3ccc(C(=O)O)cc3O)n2)ccc(C(C)=O)c1O"
  pKB: 7.06
- CHEMICAL_SMILES: "CCCc1c(OCCCCc2nnnn2Cc2ccc(C(=O)O)cc2O)ccc(C(C)=O)c1O"
  pKB: 6.40
- CHEMICAL_SMILES: "CCCc1c(OCCCCc2nnn(Cc3ccc(C(=O)O)cc3)n2)ccc(C(C)=O)c1O"
  pKB: 7.190

Kindly consider the entry below.
// pKB value for `CCCc1c(OCCCCc2nnn(Cc3ccc(Cc4nn[nH]n4)cc3)n2)ccc(C(C)=O)c1O` : 7.10
